Target: ATP-dependent translocase ABCB1 (Homo sapiens, UniProt P08183)
Sequence (P08183 whole entry): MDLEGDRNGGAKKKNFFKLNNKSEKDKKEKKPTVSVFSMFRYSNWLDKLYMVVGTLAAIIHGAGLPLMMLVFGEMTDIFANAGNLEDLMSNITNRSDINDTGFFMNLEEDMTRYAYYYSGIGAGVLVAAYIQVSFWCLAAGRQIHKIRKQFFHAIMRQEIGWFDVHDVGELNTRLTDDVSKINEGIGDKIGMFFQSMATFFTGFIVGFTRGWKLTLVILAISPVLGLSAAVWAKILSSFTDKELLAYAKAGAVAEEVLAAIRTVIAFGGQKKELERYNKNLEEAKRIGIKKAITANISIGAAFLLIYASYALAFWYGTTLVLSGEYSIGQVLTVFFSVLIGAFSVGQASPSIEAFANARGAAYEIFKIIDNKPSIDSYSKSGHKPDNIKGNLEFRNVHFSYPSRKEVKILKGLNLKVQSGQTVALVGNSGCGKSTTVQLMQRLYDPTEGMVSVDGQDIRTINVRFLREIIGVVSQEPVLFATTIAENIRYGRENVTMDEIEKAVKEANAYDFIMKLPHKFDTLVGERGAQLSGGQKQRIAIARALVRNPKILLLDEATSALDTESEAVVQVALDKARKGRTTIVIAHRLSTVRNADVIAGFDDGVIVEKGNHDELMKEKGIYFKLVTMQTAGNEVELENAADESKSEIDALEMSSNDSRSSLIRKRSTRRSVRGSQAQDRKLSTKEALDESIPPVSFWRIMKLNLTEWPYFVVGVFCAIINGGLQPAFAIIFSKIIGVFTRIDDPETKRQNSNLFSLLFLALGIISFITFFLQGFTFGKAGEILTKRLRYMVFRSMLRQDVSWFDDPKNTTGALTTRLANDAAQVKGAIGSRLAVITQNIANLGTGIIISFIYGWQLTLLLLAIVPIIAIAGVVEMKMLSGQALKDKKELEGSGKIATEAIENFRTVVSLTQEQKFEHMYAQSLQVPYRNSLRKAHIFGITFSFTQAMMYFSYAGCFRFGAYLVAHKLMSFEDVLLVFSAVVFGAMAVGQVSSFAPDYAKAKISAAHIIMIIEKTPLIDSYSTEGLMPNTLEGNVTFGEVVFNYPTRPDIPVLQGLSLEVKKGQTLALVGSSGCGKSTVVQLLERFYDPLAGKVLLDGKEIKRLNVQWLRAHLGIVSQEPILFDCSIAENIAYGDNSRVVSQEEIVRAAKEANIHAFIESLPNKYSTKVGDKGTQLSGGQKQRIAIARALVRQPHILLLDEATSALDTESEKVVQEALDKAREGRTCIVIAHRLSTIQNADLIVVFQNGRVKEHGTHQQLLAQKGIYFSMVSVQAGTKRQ
Experiment: TP_TRANSPORTER: inhibition of Daunorubicin transepithelial transport (basal to apical), (+)-efonidipine (Daunorubicin: 0.035 uM) in MDR1-expressing LLC-PK1 cells
Format: functional, cell-based
readout_kind: IC50
Respond with a number, then the unit of measure.

Item: CC1=C(C(=O)OCCN(Cc2ccccc2)c2ccccc2)C(c2cccc([N+](=O)[O-])c2)C(P2(=O)OCC(C)(C)CO2)=C(C)N1 (stereo unspecified) | System: ATP-dependent translocase ABCB1 (Homo sapiens, UniProt P08183) | IC50: 20.6 µM

Cited source for all entries: ChEMBL document CHEMBL2074205
